System Tested: T1, 4H3961-bA
T1 chain: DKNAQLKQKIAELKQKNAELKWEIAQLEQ
Procedure Details: two-hybrid library CCNG1;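 note: natural log of median RNA to DNA barcode read ratio; higher means stronger binding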
interaction score overview
Respond using a number only.

DENAQLEQEIAELEQKIAELKWKNAQLKQ [4H1072-bA] :: 1.34
DKIAQLKQENAELEQKNAELKWEIAQLEQ [4H2745-bA] :: -1.18
DEIQELEKEIEELKRKNWELEKKIQELKR [4H118-bH] :: 1.46

Lab note: next binder to report on.
Check the records and state interaction score for DKIAQLKQEIAELEQKNAELKWENAQLEQ [4H2619-bA]
-0.981

From: paper PMC10397247
